Recorded measurements of kon, one per entry
Target: T1, human activated protein C (APC) (human, UniProt P04070 43-461)
T1 construct: Bought (Haematologic Technologies; plasma-derived from Enzyme Research Laboratories); Two-chain disulfide-linked protease
T1 sequence (P04070 other isoform, or with tags, fused parts or gaps): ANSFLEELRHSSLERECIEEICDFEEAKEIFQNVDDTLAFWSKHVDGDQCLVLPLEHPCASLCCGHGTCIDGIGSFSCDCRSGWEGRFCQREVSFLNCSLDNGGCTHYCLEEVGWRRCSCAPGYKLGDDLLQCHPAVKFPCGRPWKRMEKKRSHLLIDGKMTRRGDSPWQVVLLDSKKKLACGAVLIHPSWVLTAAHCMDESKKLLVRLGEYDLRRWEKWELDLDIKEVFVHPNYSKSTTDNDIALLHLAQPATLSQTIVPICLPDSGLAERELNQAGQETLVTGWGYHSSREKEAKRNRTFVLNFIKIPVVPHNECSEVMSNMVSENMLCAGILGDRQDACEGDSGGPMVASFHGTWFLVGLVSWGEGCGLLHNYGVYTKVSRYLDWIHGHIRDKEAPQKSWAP
Experiment: BLI, VHH captured via anti-V5, APC in solution
Write down the numeric answer in M⁻¹ s⁻¹ and omit the unit.

- Binder: "LP12 (SR16983-R3-P3-F06) (VHH, not shown: small tags and cut ends, Llama VHH purified from E. coli periplasm) VHH: QLQLVESGGGLVQAGDSLRLSCTSSGLTASTYAMAWFRQAPGKEREFVAVVDWKGDTTYANSVKGRFTLSRDNGKNTNYLQMNSLQPEDTALYYCAARGSPGYVARLYAHWGRGTQVTVSS"
  kon, M⁻¹ s⁻¹: 380000
- Binder: "LP3 (SR16983-R2-P4-E09) (VHH, not shown: small tags and cut ends, Llama VHH purified from E. coli periplasm) VHH: QVQLVESGGGLVQPGGSLTLSCAASGTIESINDMGWYRQAPGKQRELVAAITSGGSTNYADSVKGRFTISRDNAKNTVYLQMNSLKPEDTAVYYCNAEVKRHYYYDSAGYRYWGQGTQVTVSS"
  kon, M⁻¹ s⁻¹: 180000
- Binder: "LP9 (SR16983-R3-P3-B05) (VHH, not shown: small tags and cut ends, Llama VHH purified from E. coli periplasm) VHH: EVQLVESGGGLVQAGGSLRLSCAASGRTFVGSYVMGWFRQAPGKEREFVAASSRSTGNTVYLDSVKGRFTVSRDDAKNTLYLQMNSLKTEDTAVYYCATRASINYNAATWPYWGQGTQVTVSS"
  kon, M⁻¹ s⁻¹: 210000

From here, focus on the item given below.
Task item: // kon lookup, key: LP4 (SR16983-R3-P2-A06) (VHH, not shown: small tags and cut ends, Llama VHH purified from E. coli periplasm) VHH: QLQLVESGGGLVQAGGSLRLSCAASGSTFNFRIMGWYRQVPGKQRELVAVINSGGSADYTEDVKGRFTISRDDAKSTMYLQMNSLKPEDTAVYYCHAKKVEPTLFTTTYWGQGTQVTVSS
Reply: 550000

// provenance: patent US20250163183A1
